A collection of binders and their measured Athena reading (relative luminescence units)
system: Scl-70 (UniProt P11387)
Sequence (P11387 2-765 limits assumed): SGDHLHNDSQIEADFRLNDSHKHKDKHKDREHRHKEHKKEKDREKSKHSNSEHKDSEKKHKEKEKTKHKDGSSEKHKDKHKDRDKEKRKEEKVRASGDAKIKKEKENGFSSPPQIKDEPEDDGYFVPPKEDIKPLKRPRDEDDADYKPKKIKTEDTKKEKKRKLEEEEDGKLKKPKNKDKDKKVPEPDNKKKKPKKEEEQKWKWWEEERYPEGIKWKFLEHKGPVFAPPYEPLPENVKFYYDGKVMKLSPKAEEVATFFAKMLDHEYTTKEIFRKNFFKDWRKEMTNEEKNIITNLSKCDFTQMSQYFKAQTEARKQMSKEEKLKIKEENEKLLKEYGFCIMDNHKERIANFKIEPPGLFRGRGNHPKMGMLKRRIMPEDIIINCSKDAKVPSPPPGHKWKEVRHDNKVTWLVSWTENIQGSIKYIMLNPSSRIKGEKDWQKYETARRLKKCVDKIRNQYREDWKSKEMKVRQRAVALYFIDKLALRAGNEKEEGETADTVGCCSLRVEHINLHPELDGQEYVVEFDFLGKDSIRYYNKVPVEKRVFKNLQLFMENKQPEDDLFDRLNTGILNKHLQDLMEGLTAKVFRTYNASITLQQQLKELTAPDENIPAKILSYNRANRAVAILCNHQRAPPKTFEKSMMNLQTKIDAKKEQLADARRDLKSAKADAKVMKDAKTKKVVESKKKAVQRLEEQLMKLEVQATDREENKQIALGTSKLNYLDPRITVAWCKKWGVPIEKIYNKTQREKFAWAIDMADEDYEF
test_name: AtheNA, Ab 25 ug/ml
Would you mind answering with just the numeric figure?

CH241 (antibody, from a related filing, V domains shown) VH: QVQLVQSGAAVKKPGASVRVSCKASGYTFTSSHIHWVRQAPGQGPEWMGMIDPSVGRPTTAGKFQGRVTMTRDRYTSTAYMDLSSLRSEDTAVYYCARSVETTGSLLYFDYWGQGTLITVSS VL: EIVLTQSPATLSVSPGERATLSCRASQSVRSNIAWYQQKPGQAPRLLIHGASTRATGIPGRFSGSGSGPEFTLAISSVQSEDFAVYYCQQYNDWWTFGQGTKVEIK = 4
CH235_4A (antibody, from a related filing, V domains shown) VH: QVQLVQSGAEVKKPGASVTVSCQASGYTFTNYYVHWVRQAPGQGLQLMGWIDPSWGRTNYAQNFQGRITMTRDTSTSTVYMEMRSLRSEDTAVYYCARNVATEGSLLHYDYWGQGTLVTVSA VL: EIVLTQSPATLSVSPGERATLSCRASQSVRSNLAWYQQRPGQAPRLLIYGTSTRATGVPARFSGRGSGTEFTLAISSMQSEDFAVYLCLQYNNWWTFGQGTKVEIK = 4
CH236_4A/293i (antibody, from a related filing, V domains shown) VH: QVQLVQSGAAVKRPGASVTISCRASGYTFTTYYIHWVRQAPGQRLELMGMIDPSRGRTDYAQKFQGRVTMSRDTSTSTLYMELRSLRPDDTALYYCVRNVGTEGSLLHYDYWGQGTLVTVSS VL: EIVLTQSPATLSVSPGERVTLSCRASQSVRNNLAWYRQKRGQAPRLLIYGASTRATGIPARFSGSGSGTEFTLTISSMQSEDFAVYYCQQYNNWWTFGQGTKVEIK = 62

Query (binder): CH240_4A/293i (antibody, from a related filing, V domains shown) VH: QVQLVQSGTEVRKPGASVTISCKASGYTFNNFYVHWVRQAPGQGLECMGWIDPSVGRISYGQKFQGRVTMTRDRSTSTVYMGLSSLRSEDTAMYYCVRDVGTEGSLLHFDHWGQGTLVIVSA VL: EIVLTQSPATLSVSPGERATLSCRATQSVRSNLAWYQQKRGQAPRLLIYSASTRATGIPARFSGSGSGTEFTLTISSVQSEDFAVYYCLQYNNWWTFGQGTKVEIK ; field requested: Athena reading (relative luminescence units)
6
